Quick reference for apparent KD of MS2 coat protein among some sequences
System: MS2 coat protein
Experiment Summary: apparent KD of MS2 coat protein; higher = weaker reporter binding
Assay Conditions: Eterna round: R107; input ligand: arginine 13.2 mM

Sequence Code: UGGCAGGAGUGAUCCUCCUGCCAAGGUGAUACCAGCAUCGAAAGAUGCCCUUGGCAGCACCAACAUGAGGAUCACCCAUGUAAUA [(MT)''-(M)'-(T')-(Theo)-(Ms2)_Design1/22_10]
Output Unit: nM
apparent KD of MS2 coat protein: 34.1
--
Sequence Code: UAUCGUCAGACGGCCGCCACUAGAACAUGAGGAUCACCCAUGUACGGCCGCCCGGUAUGGGUGUCUAGGACCGGGUCUGACGAAU [(Trp1)-(Ms2)-(T)'-(M)'-(Trp2)_Design21]
Output Unit: nM
apparent KD of MS2 coat protein: 22.9
--
Sequence Code: GGCUAACAUGAGGAUCACCCAUGUAUUGAUACCAGUAUUUGAAAAUACCCUUGGCAGCAAAUGAAGAGCGUAGCAGGGUCGAUUA [theeternabot_sameState_MS2_Theo_A_7]
Output Unit: nM
apparent KD of MS2 coat protein: 10

----------
Tested on: MS2 coat protein
Experiment Summary: apparent KD of MS2 coat protein; designed switch direction (-1 OFF switch, 1 ON switch): -1; higher = weaker reporter binding
Assay Conditions: input ligand: microRNA oligo, concentration not stated
Quick reference for apparent KD of MS2 coat protein among some sequences

Sequence Code: AGAUCUAGGACAGGAUAUACGGAUGUCUUCAUCGAAGAUGAAGACAUCACAUGAGGAUCACCCAUGUAGAAGGGUCCUAGAUCA [Omei Exc(NG) 2A] (Eterna round: R96, puzzle: Exclusion NG 2)
Output Unit: nM
apparent KD of MS2 coat protein: 10.9

Sequence Code: GCACGGUUGCUAGGAUAUCCUUGCGAUUAGCAAGGAGAAGGAGCACAUGAGGAUCACCCAUGUACCUCAAUAAUCCUUCCGUGC [Eli exng1 - 028] (Eterna round: R96, puzzle: Exclusion NG 1)
Output Unit: nM
apparent KD of MS2 coat protein: 13.2

Sequence Code: UUAAUUAAUUGCGCAAGAUCACAUGAGGAUCACCCAUGUAUAUAGGAUAUCAGCUCGAUUAGAGCUGAGAAGGAUAUACAGCGC [ExNG3/3-A1] (Eterna round: R96, puzzle: Exclusion NG 3)
Output Unit: nM
apparent KD of MS2 coat protein: 192

Sequence Code: UUUUUAUAUGAAGGAUAUACUUAACAUGAGGAUCACCCAUGUGGUGUUGUGAGUGAGUGAGUUUAGUAGAAGGUCAAGUAUUUA [JMF's solution 41] (Eterna round: R96, puzzle: Exclusion NG 2)
Output Unit: nM
apparent KD of MS2 coat protein: 527

Sequence Code: CUUGUUUAUGUAGGAUAUGCCUGGCGUGCCUUUGCAGAAGGACAUGAGGAUCACCCAUGUAACAUGAGGCUUACCCUUGUCGCC [salish99_ExNG1_r04_119] (Eterna round: R96, puzzle: Exclusion NG 1)
Output Unit: nM
apparent KD of MS2 coat protein: 56.1

Sequence Code: CAUCCUAUUGUAGGAUAUCCGCUUAUUAUAUUGGGAGAAGGACAUGAGGAUCACCCAUGUGUGUAAUCAGAUGUGCGUGUUAAC [an other try] (Eterna round: R96, puzzle: Exclusion NG 1)
Output Unit: nM
apparent KD of MS2 coat protein: 66.1

Sequence Code: CUCAUGUGAGGAUAUCAGUAGUAAAAAAAUAAAAUUACUACUGAGAAGGCACAUGAGGAUCACCCAUGUGCCAA [EX4 337: Super Stable 37] (Eterna round: R96, puzzle: Exclusion 4)
Output Unit: nM
apparent KD of MS2 coat protein: 12.8

Sequence Code: AGUAACUCAUGAGGAUAUCACAUGAGGAUCACCCAUGUAUAGCGCGCUAUGCUAGUCCUCGUAUAUGAGAAGGUAUGAUAAAUG [JL ViennaUCT Quve mod 3] (Eterna round: R96, puzzle: Exclusion NG 2)
Output Unit: nM
apparent KD of MS2 coat protein: 15.7

Sequence Code: GGUACUCAAAGAGUACCAAUACGAACAUGAGGAUCACCCAUGUAGGAUAUGCUACUCAAAGAGUAGCAGAAGGACGUGUACCUU [Far Half Aptamer v1] (Eterna round: R96, puzzle: Exclusion NG 3)
Output Unit: nM
apparent KD of MS2 coat protein: 18.5

Sequence Code: UUUUUGUAUGAAGGAUAUACUUAACAUGAGGAUCACCCAUGUGGUGUUGUGAGUGAGUGAGUUUAGUAGAAGGUCAAUUCUUUU [JMF's solution 88] (Eterna round: R96, puzzle: Exclusion NG 2)
Output Unit: nM
apparent KD of MS2 coat protein: 275

Sequence Code: AGGGACGGCUGAGGAUAUAUGUAGAGUGAGAUAGUAGAAGGCAGACAUGAGGAUCACCCAUGUAUCGGUCCUCAUAUCUCGUAU [Default title] (Eterna round: R96, puzzle: Exclusion NG 1)
Output Unit: nM
apparent KD of MS2 coat protein: 15.9

Sequence Code: CACCGUUACAGAGGAUAUGUUACAUGAGGAUCACCCAUGUAAUAAAUGAGAAUUUCGAAUGUAAUACAGAAGGCUGGAAUCGGC [Ostracism 75 - Jieux - Exclusion NG 2] (Eterna round: R96, puzzle: Exclusion NG 2)
Output Unit: nM
apparent KD of MS2 coat protein: 15.8

Sequence Code: AAUUAUUAUCGAGGAUAUCGUAUUGAAAUAAUAUGAGAAGGCGGGAUAAACAUGAGGAUCACCCAUGUGAGCCUGAUGCUUGUG [Ex NG1 #38] (Eterna round: R96, puzzle: Exclusion NG 1)
Output Unit: nM
apparent KD of MS2 coat protein: 14.9

Sequence Code: GCGUAGUAUGUAGGAUAUCGGUCAGUUUCUGAUCGAGAAGGACAUGAGGAUCACCCAUGUAAAACGCCCGCUUUGUGGGUACGC [JL ENG1 3.59] (Eterna round: R96, puzzle: Exclusion NG 1)
Output Unit: nM
apparent KD of MS2 coat protein: 17.6

Sequence Code: AGACUGCUGCGAGGAUAUACAUGAGGAUCACCCAUGUUUUCCUGUGAGGCAUAGCCUCACAGGAUGUAGAAGGCGCAGUAGUCA [Mat - Exclusion NG 2 - Mod of JL - D30] (Eterna round: R96, puzzle: Exclusion NG 2)
Output Unit: nM
apparent KD of MS2 coat protein: 11.2

Sequence Code: CUAUUUUUCGCAGGAUAUGCAUCUCCUUUAUUAGCAGAAGGGCGUUAAACAUGAGGAUCACCCAUGUAUUGUGGUGCUUUUUUC [JR_ExcNG1_Sub059] (Eterna round: R96, puzzle: Exclusion NG 1)
Output Unit: nM
apparent KD of MS2 coat protein: 54.3

Sequence Code: ACAGUUCUGCAAGGAUAUCGUUCUAGUUUAGUACGAGAAGGUGCUUUAGUUUUUUCUUUGUGUUGACAUGAGGAUCACCCAUGU [JR_ExcNG1_Sub054] (Eterna round: R96, puzzle: Exclusion NG 1)
Output Unit: nM
apparent KD of MS2 coat protein: 17.5

Sequence Code: UUAAAUCAUGUAGGAUAUGCGUAGCGAAGCUAUGCAGAAGGACAUGAGGAUCACCCAUGUGCUUGCGUCCGCGUACGGAUGCUA [Mat - Exclusion NG 1 - Mod of JL - D66] (Eterna round: R96, puzzle: Exclusion NG 1)
Output Unit: nM
apparent KD of MS2 coat protein: 107

----------
Test system: MS2 coat protein
Experiment Summary: apparent KD of MS2 coat protein; designed switch direction (-1 OFF switch, 1 ON switch): 1; higher = weaker reporter binding
Assay Conditions: Eterna round: R95; input ligand: none
Use 0.03 µM as the dividing line for apparent KD of MS2 coat protein, with the line itself on the condition met side and lower values as condition not met.

Sequence Code: AAUUAUUAACAUGAGGAUCACCCAUGUAUUAUUAUUAUUAUUAACAAGCUUUUUCAUGUUAUUAGCUCGUCUUAUAA [Bojan's Design 2] (puzzle: Sensor for hsa-mir-208a version 2)
Target: MS2 coat protein
Answer Label: condition not met
//
Sequence Code: AAGACAUUUGCUUAGGAUAUACAGGGCUCCACAUGAGGAUCACCCAUGUUAAAAGAGGAGUAAAUGUAGAAGGAAGCCUCCAAUA [Zazaes] (puzzle: Same State 2)
Target: MS2 coat protein
Answer Label: condition met
//
Sequence Code: AGAGUGUAUCCACAGGAUAUGCGAGCUGACACAUGAGGAUCACCCAUGUAGUCCUAAAGGGCCAAGCAGAAGGGUGGUAAAGCUC [Oneson] (puzzle: Same State 2)
Target: MS2 coat protein
Answer Label: condition met
//
Sequence Code: AGAGAACAUGAGGAUCACCCAUGUGAGAGGGAUGUAGGAUAUGUAAGGAAGAAAGAAGGAACAGAAGGACAAAGAG [JR_SS!_Sub066] (puzzle: Same State 1)
Target: MS2 coat protein
Answer Label: condition met
//
Sequence Code: GUCAGGCAAGCUUUUUUCUCGUAGUGUAAACAUGAGGAUCACCCAUGUGCUCGCCCUGGAUCUUUGGAUCCCAGAAA [Anedraus] (puzzle: Sensor for hsa-mir-208a)
Target: MS2 coat protein
Answer Label: condition met
